- Tested Target: mouse TMEM16A mutant I516A (Mus musculus, UniProt Q8BHY3, I516A)
- Construct: expressed in transfected cells; host or cells: HEK293T
- Sequence (Q8BHY3 whole entry I516A): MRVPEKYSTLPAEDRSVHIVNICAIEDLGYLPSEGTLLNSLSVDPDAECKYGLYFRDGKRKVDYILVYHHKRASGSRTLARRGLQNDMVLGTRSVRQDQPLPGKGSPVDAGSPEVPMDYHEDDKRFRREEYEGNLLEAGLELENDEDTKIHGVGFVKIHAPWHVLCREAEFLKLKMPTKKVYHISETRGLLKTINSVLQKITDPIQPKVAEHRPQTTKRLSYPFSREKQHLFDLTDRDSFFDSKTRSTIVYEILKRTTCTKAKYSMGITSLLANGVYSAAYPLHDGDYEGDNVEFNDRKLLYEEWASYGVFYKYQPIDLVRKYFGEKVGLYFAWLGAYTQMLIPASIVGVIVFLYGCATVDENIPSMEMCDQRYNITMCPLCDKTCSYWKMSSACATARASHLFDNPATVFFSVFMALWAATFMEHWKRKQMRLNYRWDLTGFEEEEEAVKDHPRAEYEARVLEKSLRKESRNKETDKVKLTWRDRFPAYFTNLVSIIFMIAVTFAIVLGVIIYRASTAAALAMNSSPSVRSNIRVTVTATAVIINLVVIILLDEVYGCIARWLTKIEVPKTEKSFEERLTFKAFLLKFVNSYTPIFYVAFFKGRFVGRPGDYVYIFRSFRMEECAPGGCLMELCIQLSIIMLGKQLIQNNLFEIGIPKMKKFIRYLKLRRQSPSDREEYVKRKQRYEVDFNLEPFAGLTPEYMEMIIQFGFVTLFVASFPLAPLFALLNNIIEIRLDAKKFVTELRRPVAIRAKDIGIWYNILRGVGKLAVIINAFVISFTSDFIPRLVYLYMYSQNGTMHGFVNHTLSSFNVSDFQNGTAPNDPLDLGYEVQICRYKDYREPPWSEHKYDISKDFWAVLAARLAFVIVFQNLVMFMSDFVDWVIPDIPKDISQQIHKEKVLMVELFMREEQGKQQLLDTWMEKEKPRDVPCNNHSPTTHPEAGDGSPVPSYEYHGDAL
- Measurement Protocol: Inside-out patch recording of 1PBC block, mutant I516A
- Assay type: cell-based
- Setup Conditions: I516A; V 100 mV
Quantity Kind: IC50 (µM)
Expressed in µM, but write only the number.

Problem: Quick one: IC50 for N#Cc1c(C(F)(F)F)cc(O)n2c1nc1ccccc12 [1PBC] ?
Result: 4.22

====

- Tested Target: mouse TMEM16A mutant I636A (Mus musculus, UniProt Q8BHY3, I636A)
- Construct: expressed in transfected cells; host or cells: HEK293T
- Sequence (Q8BHY3 whole entry I636A): as the sequence (Q8BHY3 whole entry I516A) above, with A516I, I636A counted along it
- Measurement Protocol: Inside-out patch recording of 1PBC block, mutant I636A
- Assay type: cell-based
- Setup Conditions: I636A; V -140 mV
Quantity Kind: IC50 (µM)
Output spec: scalar in µM, unitless text.

Problem: Item under review: `N#Cc1c(C(F)(F)F)cc(O)n2c1nc1ccccc12` . Reported IC50?
Result: 27.8
